Sourced from the RepoRT retention time repository (doi:10.1016/j.jhazmat.2019.121712)

Assay: Thermo Scientific Acclaim RSLC 120 C18, 100 × 2.1 mm, 2.2 µm, 30 °C; A: 90% water + 10% methanol + 0.01% formic acid + 5 mM ammonium formate; B: methanol + 0.01% formic acid + 5 mM ammonium formate; gradient (min/%B) 0.1/1 3/39 14/99.9 16/99.9
Conditions: stereoisomer not certain
Form field: LC retention time (one value per entry).
Write the value in min as a bare number.

Use the examples below as a reference point.
CN(CC=CC#CC(C)(C)C)Cc1cccc2ccccc12; 11
CCCCCCCCCCCC(CC1OC(=O)C1CCCCCC)OC(=O)C(CC(C)C)NC=O (stereo not drawn); 14.6
CC=C1CC(C)C(C)(O)C(=O)OCC2=CCN(C)CCC(OC1=O)C2=O (stereo not drawn); 5.16
CCOP(=S)(OCC)SCS(=O)(=O)C(C)(C)C; 9.01
O=C(O)CCCCn1cc(C(=O)c2cccc3ccccc23)c2ccccc21; 9.71

For reference, reported LC retention time for `CNCCCN1c2ccccc2CCc2ccccc21` stands at 8.08

For reference, reported LC retention time for CC(C)C1(C)N=C(c2ncccc2C(=O)O)NC1=O (stereo not drawn) stands at 4.1

For reference, reported LC retention time for C=C1CC2C(CCC3(C)C(=O)CCC23)C2(C)C=CC(=O)C=C12 (stereo not drawn) stands at 9.03

For reference, reported LC retention time for CN1CCC23c4c5ccc(O)c4OC2C(O)C=CC3C1C5 (stereo not drawn) stands at 2.54

For reference, reported LC retention time for `Cc1ccc(NS(=O)(=O)N(C)C)cc1` stands at 7.25

For reference, reported LC retention time for `CCOP(=S)(OCC)N1C(=O)c2ccccc2C1=O` stands at 10.2

For reference, reported LC retention time for CC12CCC3c4ccc(O)c(O)c4CCC3C1CCC2=O (stereo not drawn) stands at 8.69

For reference, reported LC retention time for `CCCCCCCn1cc(C(=O)c2cccc3ccccc23)c2ccccc21` stands at 13.4

For reference, reported LC retention time for `CON=C(C(=O)OC)c1ccccc1COc1ccccc1C` stands at 10.8

For reference, reported LC retention time for CC#CC1(O)CCC2C3CCC4=CC(=O)CCC4=C3C(c3ccc(N(C)C)cc3)CC21C (stereo not drawn) stands at 11.1

---

Assay: Thermo Scientific Acclaim RSLC 120 C18, 100 × 2.1 mm, 2.2 µm, 30 °C; A: 90% water + 10% methanol + 0.01% formic acid + 5 mM ammonium formate; B: methanol + 0.01% formic acid + 5 mM ammonium formate; gradient (min/%B) 0.1/1 3/39 14/99.9 16/99.9
Settings: stereoisomer not certain
Mark met for reported LC retention time of 7 min or greater; mark not met for anything smaller.

CN(C)CCOc1ccccc1Cc1ccccc1; met
Cc1c(NC(=O)c2cccnc2)c(=O)n(-c2ccccc2)n1C; not met
CC1(c2ccc(Oc3ccccc3)cc2)OC(=O)N(Nc2ccccc2)C1=O (configuration not stated); met
Cc1ccc(-c2nc3ccc(C)cn3c2CC(=O)N(C)C)cc1; not met
CC(=O)SC1CC2=CC(=O)CCC2(C)C2CCC3(C)C(CCC34CCC(=O)O4)C12 (configuration not stated); met
CCC(CC)OC1C=C(C(=O)O)CC(N)C1NC(C)=O (configuration not stated); not met
CC=CCC1=C(C)C(OC(=O)C2C(C=C(C)C(=O)OC)C2(C)C)CC1=O (configuration not stated); met
CCCCCn1cc(C(=O)Cc2ccccc2C)c2ccccc21; met

## Input Could you verify whether the entry N=C1NC(=O)C(c2ccccc2)O1 (configuration not stated) shows LC retention time of no less than 7 min?
## Output not met

## Input Could you verify whether the entry `Nc1nc2c(ncn2CCC(CO)CO)c(=O)[nH]1` shows LC retention time of no less than 7 min?
## Output not met

## Input Could you verify whether the entry `CCOc1cc(OP(=S)(OC)OC)nc(CC)n1` shows LC retention time of no less than 7 min?
## Output met

## Input Could you verify whether the entry C#CCNC(C)Cc1ccccc1 (configuration not stated) shows LC retention time of no less than 7 min?
## Output not met

## Input Could you verify whether the entry `O=C1N(CCN2CCCCC2)C(=O)C(c2ccccc2)(N2CCCCC2)C(=O)N1CCN1CCCCC1` shows LC retention time of no less than 7 min?
## Output met

## Input Could you verify whether the entry COc1ccc(CC(C)N)cc1OC (configuration not stated) shows LC retention time of no less than 7 min?
## Output not met

## Input Could you verify whether the entry `CNC(=O)CSP(=O)(OC)OC` shows LC retention time of no less than 7 min?
## Output not met

## Input Could you verify whether the entry `CCOP(=S)(OCC)Oc1ccc(S(C)(=O)=O)cc1` shows LC retention time of no less than 7 min?
## Output met

## Input Could you verify whether the entry CSc1ccc2c(c1)N(CCC1CCCCN1C)c1ccccc1S2 (configuration not stated) shows LC retention time of no less than 7 min?
## Output met

## Input Could you verify whether the entry `O=C1c2ccccc2C(=O)C1C(=O)C(c1ccccc1)c1ccccc1` shows LC retention time of no less than 7 min?
## Output met

## Input Could you verify whether the entry CNCC(O)c1ccc(O)cc1 (configuration not stated) shows LC retention time of no less than 7 min?
## Output not met

---

Assay: Thermo Scientific Acclaim RSLC 120 C18, 100 × 2.1 mm, 2.2 µm, 30 °C; A: 90% water + 10% methanol + 0.01% formic acid + 5 mM ammonium formate; B: methanol + 0.01% formic acid + 5 mM ammonium formate; gradient (min/%B) 0.1/1 3/39 14/99.9 16/99.9
Settings: stereoisomer not certain
Each entry belongs to exactly one class, chosen by where its LC retention time falls: bin A (below 5 min), bin B (5 min to below 8 min), bin C (8 min or more)

NC(=O)CS(=O)C(c1ccccc1)c1ccccc1 (stereo not given); bin B
Cc1cccc(CC(C)N)c1 (stereo not given); bin B
Cc1cccc(C)c1OCC(C)N (stereo not given); bin B
CCCOC(C(=O)OC1CCN(C)CC1)(c1ccccc1)c1ccccc1; bin C
Nc1cc(-c2ccncc2)c[nH]c1=O; bin A

## Input Form field 'band' for C=CC=CCC1=C(C)C(OC(=O)C2C(C=C(C)C)C2(C)C)CC1=O (stereo not given)
## Output bin C

## Input Form field 'band' for CCCNC(C)C(=O)Nc1c(C)csc1C(=O)OC (stereo not given)
## Output bin A

## Input Form field 'band' for `COc1ccc(N)cc1N`
## Output bin A

## Input Form field 'band' for COc1ccc(OC)c(CC(C)N)c1 (stereo not given)
## Output bin A

## Input Form field 'band' for CC#CCn1c(N2CCCC(N)C2)nc2c1c(=O)n(Cc1nc(C)c3ccccc3n1)c(=O)n2C (stereo not given)
## Output bin B

## Input Form field 'band' for CCCC1CC(C(=O)NC(C(C)O)C2OC(SC)C(O)C(O)C2O)N(C)C1 (stereo not given)
## Output bin A

## Input Form field 'band' for Cc1cc2c(OCC(O)CNC(C)C)cccc2[nH]1 (stereo not given)
## Output bin A

## Input Form field 'band' for CCCCCc1cc(O)c2c(c1)OC(C)(C)C1CCC(C)=CC21 (stereo not given)
## Output bin C

## Input Form field 'band' for CN1CC(=O)N2C(Cc3c([nH]c4ccccc34)C2c2ccc3c(c2)OCO3)C1=O (stereo not given)
## Output bin C

## Input Form field 'band' for `CCSc1cc(OC)c(CCN)cc1OC`
## Output bin B

## Input Form field 'band' for `CCSCc1ccccc1OC(=O)NC`
## Output bin B

## Input Form field 'band' for `CCCCCn1cc(C(=O)NCc2ccccc2)c2ccccc21`
## Output bin C

---

Form field: LC retention time (one value per entry).
Test: Thermo Scientific Acclaim RSLC 120 C18, 100 × 2.1 mm, 2.2 µm, 30 °C; A: 90% water + 10% methanol + 0.01% formic acid + 5 mM ammonium formate; B: methanol + 0.01% formic acid + 5 mM ammonium formate; gradient (min/%B) 0.1/1 3/39 14/99.9 16/99.9
Settings: stereoisomer not certain
Write the value in min as a bare number.

Use the examples below as a reference point.
CCNC1CC(C)S(=O)(=O)c2sc(S(N)(=O)=O)cc21 (stereo unspecified); 3.19
COc1ccc2c3c1OC1C(OC(C)=O)=CCC4C(C2)N(C)CCC314 (stereo unspecified); 4.47
COc1ccc2c(c1)N(CC(C)CN(C)C)c1ccccc1S2 (stereo unspecified); 8.14

For reference, reported LC retention time for `COc1cnc(NS(=O)(=O)c2ccc(N)cc2)nc1` stands at 4.18

For reference, reported LC retention time for CCN(CC)CCOC(=O)C(c1ccccc1)C1CCCCC1 (stereo unspecified) stands at 9.19

For reference, reported LC retention time for CN1CCCCC1Cn1cc(C(=O)C2C(C)(C)C2(C)C)c2ccccc21 (stereo unspecified) stands at 8.81

---

Form field: LC retention time (one value per entry).
Test: Thermo Scientific Acclaim RSLC 120 C18, 100 × 2.1 mm, 2.2 µm, 30 °C; A: 90% water + 10% methanol + 0.01% formic acid + 5 mM ammonium formate; B: methanol + 0.01% formic acid + 5 mM ammonium formate; gradient (min/%B) 0.1/1 3/39 14/99.9 16/99.9
Details: stereoisomer not certain
Write the value in min as a bare number.

CC(C(=O)c1ccccc1)N(C)C (stereo unspecified); 3.64

For reference, reported LC retention time for CC12CCC(=O)C=C1C=CC1C2CCC2(C)C1CCC21CCC(=O)O1 (stereo unspecified) stands at 9.77

For reference, reported LC retention time for `COC(=O)c1ccccc1S(=O)(=O)NC(=O)Nc1nc(C)cc(C)n1` stands at 6.92

For reference, reported LC retention time for CC(=O)Oc1ccc2c3c1OC1C(OC(C)=O)C=CC4C(C2)N(C)CCC341 (stereo unspecified) stands at 4.63

For reference, reported LC retention time for `CN(C)CCc1c[nH]c2cccc(O)c12` stands at 3.29

For reference, reported LC retention time for CCC(=O)C1C(=O)CC(C(=O)O)CC1=O (stereo unspecified) stands at 5.63
